Taken from ChEMBL document CHEMBL4732106.

target-desc: Transient receptor potential cation channel subfamily V member 1 (Rattus norvegicus, UniProt O35433)
Sequence (O35433 whole entry): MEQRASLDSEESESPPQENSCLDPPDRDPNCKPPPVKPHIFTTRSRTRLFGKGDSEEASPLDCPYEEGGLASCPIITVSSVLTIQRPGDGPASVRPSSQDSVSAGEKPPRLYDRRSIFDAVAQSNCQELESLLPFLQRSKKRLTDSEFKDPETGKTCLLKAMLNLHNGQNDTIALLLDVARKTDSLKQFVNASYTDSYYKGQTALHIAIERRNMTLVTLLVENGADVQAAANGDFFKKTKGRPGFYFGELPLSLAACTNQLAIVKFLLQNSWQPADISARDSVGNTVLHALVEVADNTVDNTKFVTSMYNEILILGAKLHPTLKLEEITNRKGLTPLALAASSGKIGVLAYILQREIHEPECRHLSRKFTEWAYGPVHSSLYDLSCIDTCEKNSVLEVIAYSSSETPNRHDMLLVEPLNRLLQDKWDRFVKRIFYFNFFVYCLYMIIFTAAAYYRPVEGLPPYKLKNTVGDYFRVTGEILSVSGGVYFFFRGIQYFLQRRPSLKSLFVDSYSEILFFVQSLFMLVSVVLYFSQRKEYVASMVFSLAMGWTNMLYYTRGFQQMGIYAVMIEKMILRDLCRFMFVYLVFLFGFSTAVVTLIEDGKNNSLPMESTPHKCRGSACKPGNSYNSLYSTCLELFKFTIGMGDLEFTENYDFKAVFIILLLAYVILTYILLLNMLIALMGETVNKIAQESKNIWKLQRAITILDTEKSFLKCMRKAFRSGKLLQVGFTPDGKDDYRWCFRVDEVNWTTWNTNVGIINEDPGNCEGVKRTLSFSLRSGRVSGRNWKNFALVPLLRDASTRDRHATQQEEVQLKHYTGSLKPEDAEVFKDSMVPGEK
assay-method-text: Agonist activity at TRPV1 in rat isolated mesenteric arteries assessed as vasorelaxation of phenylephrine-induced contraction in presence of TRPV1 antagonist capsazepine
Format: tissue-based, Artery
pEC50: −log10 of the molar value.
Reported pEC50 values follow for various compounds
property-name: pEC50

>  <line-notation>
CCCCC/C=C\C/C=C\C/C=C\C/C=C\CCCC(=O)Nc1ccc(O)c(OC)c1

>  <property-name>
pEC50

>  <value>
7.80

$$$$
>  <line-notation>
CCCCC/C=C\C/C=C\C/C=C\C/C=C\CCCC(=O)Nc1ccc2[nH]ncc2c1

>  <property-name>
pEC50

>  <value>
6.40

$$$$
>  <line-notation>
CCCCC/C=C\C/C=C\C/C=C\C/C=C\CCCC(=O)NCc1ccc2[nH]ncc2c1

>  <property-name>
pEC50

>  <value>
6.80

$$$$
>  <line-notation>
CCCCC/C=C\C/C=C\C/C=C\C/C=C\CCCC(=O)Nc1ccc(OC)c(O)c1

>  <property-name>
pEC50

>  <value>
7.20

$$$$

====

assay-method-text: Prodrug conversion in FAAH+/+ mouse brain assessed as N-arachidonoyl conjugate level per g protein at 100 mg/kg, ip measured after 20 mins by LC-MS/MS analysis
Format: ADME, organism-based
Parameters: unit: pmol/g protein
condition-parameters: in vivo
Listing: Drug metabolism of selected compounds
property-name: Drug metabolism (pmol)

>  <line-notation>
NCc1ccc2[nH]ncc2c1

>  <value>
58

$$$$
>  <line-notation>
COc1ccc(N)cc1O

>  <value>
283

$$$$
>  <line-notation>
Nc1ccc(O)cc1

>  <value>
1002

$$$$
>  <line-notation>
COc1cc(N)ccc1O

>  <value>
82

$$$$
>  <line-notation>
Nc1ccc2[nH]ncc2c1

>  <value>
1731

$$$$

====

target-desc: Fatty-acid amide hydrolase 1 (Mus musculus, UniProt O08914)
Sequence (O08914 whole entry): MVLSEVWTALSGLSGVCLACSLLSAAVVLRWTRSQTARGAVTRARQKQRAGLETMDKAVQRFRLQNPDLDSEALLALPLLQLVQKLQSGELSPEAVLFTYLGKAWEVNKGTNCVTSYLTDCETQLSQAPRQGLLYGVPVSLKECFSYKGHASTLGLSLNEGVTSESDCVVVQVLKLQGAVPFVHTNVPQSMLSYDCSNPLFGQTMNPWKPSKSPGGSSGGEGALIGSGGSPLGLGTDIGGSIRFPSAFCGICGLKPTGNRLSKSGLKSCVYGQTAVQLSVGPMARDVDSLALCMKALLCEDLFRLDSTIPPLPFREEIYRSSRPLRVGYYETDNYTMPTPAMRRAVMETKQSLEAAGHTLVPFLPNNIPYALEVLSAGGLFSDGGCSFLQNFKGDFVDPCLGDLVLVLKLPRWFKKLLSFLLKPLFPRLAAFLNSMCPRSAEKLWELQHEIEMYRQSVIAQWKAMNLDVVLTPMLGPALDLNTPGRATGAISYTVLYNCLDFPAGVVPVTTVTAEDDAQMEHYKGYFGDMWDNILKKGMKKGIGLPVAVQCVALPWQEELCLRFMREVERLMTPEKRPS
assay-method-text: Substrate activity at FAAH in FAAH+/+ mouse brain assessed as N-arachidonoyl conjugate level per g protein at 0.1 mM measured after 20 mins by LC-MS/MS analysis
Assay type: ADME, tissue-based
condition-parameters: 100 µM
property-name: Drug metabolism (nmol/g)

>  <line-notation>
COc1cc(N)ccc1O

>  <unit>
nmol/g

>  <value>
0.54

$$$$
>  <line-notation>
COc1ccc(N)cc1O

>  <unit>
nmol/g

>  <value>
3

$$$$
>  <line-notation>
Nc1ccc(O)cc1

>  <unit>
nmol/g

>  <value>
8.8

$$$$
>  <line-notation>
Nc1ccc2[nH]ncc2c1

>  <unit>
nmol/g

>  <value>
12

$$$$
>  <line-notation>
COc1cc(CN)ccc1O

>  <unit>
nmol/g

>  <value>
2.5

$$$$
>  <line-notation>
NCc1ccc2[nH]ncc2c1

>  <unit>
nmol/g

>  <value>
2.5

$$$$

====

assay-method-text: Prodrug conversion in FAAH-/- mouse brain assessed as N-arachidonoyl conjugate level per g protein at 0.1 mM measured after 20 mins by LC-MS/MS analysis
Assay type: ADME, tissue-based
condition-parameters: in vitro, 100 µM
Item-by-item account of Drug metabolism

>  <line-notation>
NCc1ccc2[nH]ncc2c1

>  <Drug metabolism>
0.04 nmol/g

$$$$
>  <line-notation>
COc1ccc(N)cc1O

>  <Drug metabolism>
0.06 nmol/g

$$$$
>  <line-notation>
COc1cc(N)ccc1O

>  <Drug metabolism>
0.005 nmol/g

$$$$
>  <line-notation>
COc1cc(CN)ccc1O

>  <Drug metabolism>
0.01 nmol/g

$$$$
>  <line-notation>
Nc1ccc2[nH]ncc2c1

>  <Drug metabolism>
0.09 nmol/g

$$$$
>  <line-notation>
Nc1ccc(O)cc1

>  <Drug metabolism>
0.05 nmol/g

$$$$

====

assay-method-text: Prodrug conversion in FAAH-/- mouse brain assessed as N-arachidonoyl conjugate level per g protein at 100 mg/kg, ip measured after 20 mins by LC-MS/MS analysis
Type: ADME, organism-based
Design: unit: pmol/g protein
condition-parameters: in vivo
property-name: Drug metabolism (pmol)

>  <compound>
NCc1ccc2[nH]ncc2c1

>  <value>
58

$$$$
>  <compound>
Nc1ccc(O)cc1 [4-AMINOPHENOL]

>  <value>
24

$$$$
>  <compound>
COc1cc(N)ccc1O

>  <value>
190

$$$$
>  <compound>
Nc1ccc2[nH]ncc2c1

>  <value>
161

$$$$
>  <compound>
COc1ccc(N)cc1O

>  <value>
42

$$$$

====

target-desc: Transient receptor potential cation channel subfamily V member 1 (Rattus norvegicus)
assay-method-text: Agonist activity at TRPV1 in rat isolated mesenteric arteries assessed as vasorelaxation of phenylephrine-induced contraction
Assay type: tissue-based, Artery
property-name: log10(EC50) (log10 of the value in nM)

>  <line-notation>
CCCCC/C=C\C/C=C\C/C=C\C/C=C\CCCC(=O)NCc1ccc(O)c(OC)c1

>  <target-desc>
Transient receptor potential cation channel subfamily V member 1 (Rattus norvegicus)

>  <value>
-0.30

$$$$
>  <line-notation>
CCCCC/C=C\C/C=C\C/C=C\C/C=C\CCCC(=O)Nc1ccc(O)c(OC)c1

>  <target-desc>
Transient receptor potential cation channel subfamily V member 1 (Rattus norvegicus)

>  <value>
0.10

$$$$
>  <line-notation>
CCCCC/C=C\C/C=C\C/C=C\C/C=C\CCCC(=O)Nc1ccc2[nH]ncc2c1

>  <target-desc>
Transient receptor potential cation channel subfamily V member 1 (Rattus norvegicus)

>  <value>
1.10

$$$$
>  <line-notation>
CCCCC/C=C\C/C=C\C/C=C\C/C=C\CCCC(=O)Nc1ccc(O)cc1

>  <target-desc>
Transient receptor potential cation channel subfamily V member 1 (Rattus norvegicus)

>  <value>
1.70

$$$$
>  <line-notation>
CCCCC/C=C\C/C=C\C/C=C\C/C=C\CCCC(=O)Nc1ccc(OC)c(O)c1

>  <target-desc>
Transient receptor potential cation channel subfamily V member 1 (Rattus norvegicus)

>  <value>
0.50

$$$$
>  <line-notation>
CCCCC/C=C\C/C=C\C/C=C\C/C=C\CCCC(=O)NCc1ccc2[nH]ncc2c1

>  <target-desc>
Transient receptor potential cation channel subfamily V member 1 (Rattus norvegicus)

>  <value>
0.60

$$$$

====

assay-method-text: Hepatotoxicity in C57BL/6 mouse assessed as change in ALT level at 300 mg/kg, ip measured after 12 hrs
Type: toxicity, organism-based
condition-parameters: in vivo

>  <line-notation>
Nc1ccc(O)cc1

>  <Activity>
Non-Toxic

$$$$
>  <line-notation>
COc1ccc(N)cc1O

>  <Activity>
Non-Toxic

$$$$
>  <line-notation>
COc1cc(CN)ccc1O

>  <Activity>
Non-Toxic

$$$$
>  <line-notation>
Nc1ccc2[nH]ncc2c1

>  <Activity>
Non-Toxic

$$$$
>  <line-notation>
CC(=O)Nc1ccc(O)cc1

>  <Activity>
Toxic

$$$$

====

assay-method-text: Hepatotoxicity in C57BL/6 mouse assessed as centrilobular necrosis at 300 mg/kg, ip measured after 12 hrs by H and E staining based microscopic analysis
Assay type: toxicity, organism-based
condition-parameters: in vivo
property-name: Activity

>  <compound>
Nc1ccc(O)cc1 [4-AMINOPHENOL]

>  <value>
Non-Toxic

$$$$
>  <compound>
COc1ccc(N)cc1O

>  <value>
Non-Toxic

$$$$
>  <compound>
CC(=O)Nc1ccc(O)cc1 [ACETAMINOPHEN]

>  <value>
Toxic

$$$$
>  <compound>
Nc1ccc2[nH]ncc2c1

>  <value>
Non-Toxic

$$$$
>  <compound>
COc1cc(CN)ccc1O

>  <value>
Non-Toxic

$$$$
